Taken from paper PMC6499816.

# Test Target: GABARAP Y25H (recombinant, BLI) (human, UniProt O95166 1-117, Y25H)
# Protocol Notes: BLI
Ends that are not written are not given here.
Property Measured: pKd
Scale: negative log10 of molar concentration, which is what pKd denotes.

Looking up SKDSSCDTDDFVMVPAQFPGDLVA (also: biotin, position not given here) [ULK1 LIR peptide (biotinylated, BLI)] , I see its pKd listed as 6.59
